Reported values of biofilm OD600 for individual entries
test system: Candida albicans SNY425 biofilm; assay: biofilm OD600 with compound plus antifungal (OD600 (absorbance)); higher = more biofilm remaining; conditions: assay detail: sustained inhibition (compound + antifungal during 90-min adherence and 24-h growth)
measureName: biofilm OD600

{"columns": ["compound", "assayedTarget", "measureName", "reportedValue"],
 "data": [
  ["CCCCCCCCCC(=O)N[C@@H](CCCN=C(N)N)C(=O)N[C@H](C(=O)N[C@@H](CCCCN)C(=O)N[C@@H](CCCN=C(N)N)C(=O)CCl)C(C)C + CC[C@H](C)C[C@H](C)CCCCCCCCC(=O)N[C@H]1C[C@@H](O)[C@@H](NCCN)NC(=O)[C@@H]2[C@@H](O)CCN2C(=O)[C@H]([C@H](O)CCN)NC(=O)[C@H]([C@H](O)[C@@H](O)c2ccc(O)cc2)NC(=O)[C@@H]2C[C@@H](O)CN2C(=O)[C@H]([C@@H](C)O)NC1=O [caspofungin] (first compound 4 µM)", "Candida albicans SNY425 biofilm", "biofilm OD600", 0.141],
  ["N[C@H](C(=O)O)[C@@H]1CC(Cl)=NO1 [Acivicin] + C[C@@H]1[C@H](O)[C@@H](C)/C=C/C=C/C=C/C=C/C=C/C=C/C=C/[C@H](O[C@@H]2O[C@H](C)[C@@H](O)[C@H](N)[C@@H]2O)C[C@@H]2O[C@](O)(C[C@@H](O)C[C@@H](O)[C@H](O)CC[C@@H](O)C[C@@H](O)CC(=O)O[C@H]1C)C[C@H](O)[C@H]2C(=O)O [amphotericin B] (first compound 4 µM)", "Candida albicans SNY425 biofilm", "biofilm OD600", 0.181],
  ["CC(C)C[C@H](NC(=O)N[C@H](C(=O)N[C@@H](CCC(N)=O)C(=O)N[C@@H](C)C=O)[C@@H]1CCNC(=N)N1)C(=O)O [Elastatinal] + CC[C@H](C)C[C@H](C)CCCCCCCCC(=O)N[C@H]1C[C@@H](O)[C@@H](NCCN)NC(=O)[C@@H]2[C@@H](O)CCN2C(=O)[C@H]([C@H](O)CCN)NC(=O)[C@H]([C@H](O)[C@@H](O)c2ccc(O)cc2)NC(=O)[C@@H]2C[C@@H](O)CN2C(=O)[C@H]([C@@H](C)O)NC1=O [caspofungin] (first compound 12.5 µM)", "Candida albicans SNY425 biofilm", "biofilm OD600", 0.189]
]}

* * *

test system: Candida albicans SNY425 biofilm; test: biofilm OD600 with compound plus antifungal (OD600 (absorbance)); higher = more biofilm remaining; conditions: assay detail: disruption of 24-h mature biofilm (compound + antifungal for a second 24 h)
Counter-ions that a name gives are not always drawn.
measureName: biofilm OD600

{"columns": ["molecule", "reportedValue"],
 "data": [
  ["CC(C)CC(=O)N[C@H](C(=O)N[C@H](C(=O)N[C@@H](CC(C)C)[C@@H](O)CC(=O)N[C@@H](C)C(=O)N[C@@H](CC(C)C)[C@@H](O)CC(=O)O)C(C)C)C(C)C [Pepstatin A] + CC[C@H](C)C[C@H](C)CCCCCCCCC(=O)N[C@H]1C[C@@H](O)[C@@H](NCCN)NC(=O)[C@@H]2[C@@H](O)CCN2C(=O)[C@H]([C@H](O)CCN)NC(=O)[C@H]([C@H](O)[C@@H](O)c2ccc(O)cc2)NC(=O)[C@@H]2C[C@@H](O)CN2C(=O)[C@H]([C@@H](C)O)NC1=O [caspofungin] (first compound 12.5 µM)", 0.264],
  ["CC(C)(C)NC(=O)[C@@H]1C[C@@H]2CCCC[C@@H]2CN1C[C@@H](O)[C@H](Cc1ccccc1)NC(=O)[C@H](CC(N)=O)NC(=O)c1ccc2ccccc2n1 [saquinavir] + C[C@@H]1[C@H](O)[C@@H](C)/C=C/C=C/C=C/C=C/C=C/C=C/C=C/[C@H](O[C@@H]2O[C@H](C)[C@@H](O)[C@H](N)[C@@H]2O)C[C@@H]2O[C@](O)(C[C@@H](O)C[C@@H](O)[C@H](O)CC[C@@H](O)C[C@@H](O)CC(=O)O[C@H]1C)C[C@H](O)[C@H]2C(=O)O [amphotericin B] (first compound 12.5 µM)", 0.243],
  ["CCCC[C@@H](C=O)NC(=O)OC(C)(C)C + OC(Cn1cncn1)(Cn1cncn1)c1ccc(F)cc1F [fluconazole] (first compound 12.5 µM)", 0.243],
  ["CC(C)C[C@H](NC(=O)[C@@H](O)[C@H](N)Cc1ccccc1)C(=O)O [Bestatin·HCl] + OC(Cn1cncn1)(Cn1cncn1)c1ccc(F)cc1F [fluconazole] (first compound 12.5 µM)", 0.284]
]}
